Target: DLK (Homo sapiens)
Construct: 10 nM DLK, catalytic domain, Carna Biosiences; purchased Carna Biosciences ('Carna Biosiences' [sic])
Sequence (Q12852 125-366 limits assumed): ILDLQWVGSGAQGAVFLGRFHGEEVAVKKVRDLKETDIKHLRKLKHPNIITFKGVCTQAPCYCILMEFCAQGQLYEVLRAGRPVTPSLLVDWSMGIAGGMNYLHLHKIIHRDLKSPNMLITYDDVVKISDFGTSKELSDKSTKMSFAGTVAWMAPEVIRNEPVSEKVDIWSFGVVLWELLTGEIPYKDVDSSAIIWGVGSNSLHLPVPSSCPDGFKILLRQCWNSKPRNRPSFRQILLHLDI
Assay: DLK biochemical assay (TR-FRET, MKK7 phosphorylation)
Could you mark each record met if its IC50 falls strictly under 10 nM, and not met if it equals or exceeds it?

## Task For Nc1nc2c(-c3ccc(=O)n(C(F)F)c3)cc(-c3cnn(C(c4ccc(C(F)(F)F)nc4)C4CCOCC4)c3)cn2n1 (single isomer, unassigned) [II-154] , is the recorded IC50 below the cut-off of 10 nM?
## Result met

## Task Hello, is IC50 of the following compound strictly smaller than 10 nM? Nc1nc2c(-c3ccn(CC(F)F)c(=O)c3)cc(-c3cnn(C(c4ccc(C(F)(F)F)nc4)C4CCOCC4)c3)cn2n1 (single isomer, unassigned) [II-173]
## Result not met

## Task Identify whether the compound CC[C@@H](c1ccc(C(F)(F)F)nc1)n1cc(-c2cc(-c3cnn(CC(F)(F)F)c3)c3nc(N)nn3c2)cn1 (single isomer, unassigned) records IC50 below 10 nM.
## Result met

## Task Criterion: IC50 strictly below 10 nM. Is it met by CCC(c1ccc(C(F)(F)F)nc1)n1cc(-c2cc(-c3cccc(C(C)(C)O)c3)c3nc(N)nn3c2)cn1 (single isomer, unassigned) [II-8] ?
## Result met

## Task Regarding CC(C)C(c1ccc(C(F)(F)F)nc1)n1cc(-c2cc(-c3ccc(C4CC4)nc3)n3nc(N)nc3c2)cn1 (racemic) [II-58] , kindly confirm whether its IC50 is beneath 10 nM.
## Result not met

## Task Take the compound CCC(c1ccc(C(F)(F)F)nc1)n1cc(-c2cc(-c3cnn(CC(F)F)c3)c3nc(N)nn3c2)cn1 (racemic) [II-108] and say whether its IC50 is less than 10 nM.
## Result met

## Task Is IC50 strictly under 10 nM for the entry Nc1nc2cc(-c3cnn(C(c4ccc(C(F)F)nc4)C4CCOCC4)c3)cc(-c3ccc(C(F)(F)F)nc3)n2n1 (single isomer, unassigned) [II-77] ?
## Result not met

## Task # check: IC50 < 10 nM for CCC(c1ccc(C(F)F)nc1)n1cc(-c2cc(-c3ccc(C(F)(F)F)nc3)n3nc(N)nc3c2)cn1 (single isomer, unassigned) [II-62]
## Result not met

## Task Hello, I'm reviewing records and need to know if IC50 of Nc1nc2cc(-c3cnn(C(c4ccc(C(F)(F)F)nc4)C4CCOCC4)c3)cc(-c3cnn(CC(F)(F)F)c3)n2n1 (stereo not drawn) [II-149] is below 10 nM. Could you check?
## Result met

## Task For CCC(c1ccc(C(F)(F)F)nc1)n1cc(-c2cc(-c3ccc(C(F)(F)F)nc3)c3nc(N)nn3c2)cn1 (single isomer, unassigned) [II-38] , is the recorded IC50 below the cut-off of 10 nM?
## Result not met

## Task Lab note: confirm whether the reported IC50 for this compound is below 10 nM, equality not counting. compound: Nc1nc2cc(-c3cnn(C(c4ccc(C(F)(F)F)nc4)C4CCOCC4)c3)cc(-c3cnn(CC(F)(F)F)c3)n2n1 (single isomer, unassigned) [II-150]
## Result met

## Task Is IC50 strictly under 10 nM for the entry `CC[C@@H](c1ccc(C(F)(F)F)nc1)n1cc(-c2cc(-c3ccc(=O)n(CC(F)(F)F)c3)c3nc(N)nn3c2)cn1` ?
## Result met
